B1: library; a variant is named by its letters at N, in order (parent)
chain: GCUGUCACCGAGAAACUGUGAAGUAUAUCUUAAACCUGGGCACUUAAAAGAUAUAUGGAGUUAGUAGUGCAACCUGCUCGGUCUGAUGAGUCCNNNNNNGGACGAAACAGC

# Variants of: B1
# PROTOCOL: normalized RNA/DNA level without ligand (relative to sTRSVctl = 100) (log10 (% of sTRSVctl)); HEK293T; ligand: cyclic di-GMP (c-di-GMP-II aptamer); higher = less ribozyme self-cleavage, higher mRNA level
# MEASUREMENT_SETUP: reporter: mCherry (pCS4076), ligand present: no
Listing of recorded normalized RNA/DNA level without ligand (log10) by entry.
Hey, just send me the number, nothing else.

UAUGAU ... 1.6
CGCCAA ... 1.37

Short answer for CCAGUG : normalized RNA/DNA level without ligand (log10) was 1.27

For reference, reported normalized RNA/DNA level without ligand (log10) for GAUGGC stands at 1.68

Kindly note the recorded normalized RNA/DNA level without ligand (log10) for CUGAAU , which is 1.43

# variant UGAGCC ; its normalized RNA/DNA level without ligand (log10) = 1.84

According to the records, this variant CUAUUA displays normalized RNA/DNA level without ligand (log10) of 1.38
